test: Primary qHTS for inhibitors of nuclear receptor binding SET domain protein 2 (NSD2) in an isogenic RCH-ACV NSD2 p.E1099K mutant (9B) (AID 1645876); settings: RCH-ACV (leukaemia line) NSD2 E1099K (9B) viability, CellTiter-Glo, 72 h; series mostly up to 44.9 µM; note: nearly all actives have a fitted effect of over 70% in size
Records with an inconclusive call do not appear. The source made the active and inactive calls. Calls come from the whole dose curve; as a rule, active = well fitted inhibition curve with a large enough effect; inconclusive = small, poorly fitted or top-dose-only effect; inactive = flat fitted curve, though single readings scatter.
In this exercise, the only acceptable responses are 1 = active, -1 = inactive

Some solved entries appear below for comparison.
>  <MOLECULE>
NC(CC1c2ccccc2Oc2ccccc21)(C(=O)O)C1CC1C(=O)O (stereo unspecified)

>  <LABEL VALUE>
-1

$$$$
>  <MOLECULE>
O=C([O-])C[O-].[Pt+2]

>  <LABEL VALUE>
-1

$$$$
>  <MOLECULE>
[2H]c1nc(C)nc([2H])c1-c1cc(NC[C@@H](C)c2cccc3c(C(=O)NC)ccnc23)ncn1

>  <LABEL VALUE>
-1

$$$$
>  <MOLECULE>
O=c1oc2c(C3OCCCO3)c(O)ccc2c2c1CNCC2

>  <LABEL VALUE>
-1

$$$$

With those in mind, consider the next molecule.
In: What outcome does the record of this test show for CN(C)C/C=C/C(=O)Nc1cc2c(Nc3ccc(F)c(Cl)c3)ncnc2cc1O[C@H]1CCOC1 ?
Out: 1
